Test system: COLO 205 colon
Test: NCI-60 one-dose screen, 48 h
Settings: 10 µM unless noted
The panel holds about 83,000 compounds, 20% with a hit somewhere; the sample as a whole holds those more often. Calls of active or inactive are those of the source. The calls were made as follows: active = growth percent below 10; inactive = the rest.
Tick one outcome: active, inactive

Assay outcome for CCOC(=O)c1csc(NC(=O)COc2cccc(/C=C3\Oc4cc(OC)ccc4C3=O)c2)n1 : what was it?
inactive

Assay outcome for CCN(CC)c1ccc(C(=O)c2ccc(N(CC)CC)cc2)cc1 : what was it?
active

Assay outcome for Cc1c(C(=O)N[C@@H](Cc2ccccc2)C(=O)C(=O)NCCc2ccccc2)[nH]c2ccccc2c1=O : what was it?
inactive

Assay outcome for COc1cccc(-c2nn(-c3ccccc3)cc2-c2ccnc(NCCCNC(=O)Nc3ccc(Cl)c(Cl)c3)c2)c1 : what was it?
active

Assay outcome for COc1cccc(-c2nn(-c3ccccc3)cc2-c2ccnc(NCCNC(=O)Nc3cccc(C(F)(F)F)c3)c2)c1 : what was it?
active

Assay outcome for CC(=O)OC[C@H]1OC(Sc2sc(C(=O)c3ccc(Br)cc3)c(N)c2-c2nc3ccccc3s2)[C@H](OC(C)=O)[C@@H](OC(C)=O)[C@@H]1OC(C)=O (stereo partly drawn) : what was it?
inactive

Assay outcome for CCn1c(C)nc2cc(C(N)=O)ccc21 : what was it?
inactive

Assay outcome for N#Cc1c(N2CCNCC2)nc2sc3cc(Cl)c(Cl)cc3n2c1=N : what was it?
inactive
